molecular target: HLA-A*11:01; experiment: IEDB peptide-MHC binding, purified MHC/competitive/radioactivity; filed as Kd, often an IC50 or EC50 that approximates it; bounds were set here for any values at or beyond the usual limits of such assays; settings: source organism: Lymphocytic choriomeningitis virus (strain Armstrong)
pKd: −log10 of the molar value.
result.type: pKd

Example entries begin here.
NACSANNSHH: ≤ 4.16
RCHDHYLCRH: ≤ 4.16

Request: If you can, please state the reported pKd value of `QVYFESFVR` .
Result: 7.26

---

target: HLA-B*15:03; assay: IEDB peptide-MHC binding, purified MHC/competitive/radioactivity; filed as Kd, often an IC50 or EC50 that approximates it; bounds were set here for any values at or beyond the usual limits of such assays; settings: source organism: Vaccinia virus WR
pKd: −log10 of the molar value.
Note to self: values exactly at 9 are true. So pKd at or above 9 is true, below is false.

Take a look at these entries with their results.
VMVTSKPLF: false
KVREHTFVK: false
IKTMMINPF: true

Request: Hello, I need to know if `FSKKKVCFV` has measured pKd not below 9. Thanks!
Result: false

Request: Hello, I need to know if `ILVPNINIL` has measured pKd not below 9. Thanks!
Result: false

Request: Hello, I need to know if `AQYASTLSV` has measured pKd not below 9. Thanks!
Result: true

Request: Hello, I need to know if `NKVLCISFF` has measured pKd not below 9. Thanks!
Result: false

Request: Hello, I need to know if `SKYAGINIL` has measured pKd not below 9. Thanks!
Result: true

Request: Hello, I need to know if `MMVSTENNL` has measured pKd not below 9. Thanks!
Result: false

Sourced from the Immune Epitope Database (IEDB)
